System: Human immunodeficiency virus 1
Assay: Inhibitory activity against HIV-1 IIIB to achieve 50% protection of MT-2 cells
Assay type: functional, organism-based
Details: Human immunodeficiency virus 1, MT2
Measured IC50 of individual entries
attribute.measured: IC50

>  <smiles.structure>
Cc1cn([C@H]2C=C[C@@](C)(CO)O2)c(=O)[nH]c1=O

>  <attribute.measured>
IC50

>  <obs.value>
> 100000 nM

$$$$
>  <smiles.structure>
C#C[C@@]1(CO)C=C[C@H](n2cc(C)c(=O)[nH]c2=O)O1

>  <attribute.measured>
IC50

>  <obs.value>
200 nM

$$$$
>  <smiles.structure>
Cc1cn([C@H]2C=C[C@@H](CO)O2)c(=O)[nH]c1=O

>  <attribute.measured>
IC50

>  <obs.value>
2800 nM

$$$$
>  <smiles.structure>
C=C[C@@]1(CO)C=C[C@H](n2cc(C)c(=O)[nH]c2=O)O1

>  <attribute.measured>
IC50

>  <obs.value>
> 100000 nM

$$$$

The reported measurements were obtained from ChEMBL document CHEMBL1136327.
